Listed here are compounds together with their documented IC50.
- testedSystem: Pancreatic lipase (PL) (Sus scrofa, UniProt P00591)
- Construct: purchased Sigma Aldrich type II, Lot.SLBN9099V
- testSummary: Inhibition of PL-mediated 4-MUO hydrolysis
- Assay type: biochemical
- runParameters: 4-MUO substrate, mean ± SD (n = 3)
Record the value in µM, omitting the unit from your answer.

compound	unitAnnotation	IC50
C[C@H]1[C@H](C)CC[C@]2(C(=O)O)CC[C@]3(C)C(=CC[C@@H]4[C@@]5(C)CC[C@H](O)C(C)(C)[C@@H]5CC[C@]43C)[C@H]12	µM	6.16

Provide the reported IC50 (system: Pancreatic lipase (PL) (Sus scrofa, UniProt P00591)) for CC(=O)OC1CCC2(C)C(CCC3(C)C2CC=C2C4C(C)C(C)CCC4(C(=O)O)CCC23C)C1(C)C (centres unmarked)
0.75

Provide the reported IC50 (system: Pancreatic lipase (PL) (Sus scrofa, UniProt P00591)) for CC1(C)CCC2(C(=O)O)CCC3(C)C(=CCC4C5(C)C=C(O)C(=O)C(C)(C)C5CCC43C)C2C1 (centres unmarked)
2.13

---

- testedSystem: hCES1A (Homo sapiens, UniProt P23141)
- Construct: tissue Bioreclamation IVT lot No. X008067; host or cells: pooled human liver microsomes from 50 donors
- Sequence (P23141 18-567): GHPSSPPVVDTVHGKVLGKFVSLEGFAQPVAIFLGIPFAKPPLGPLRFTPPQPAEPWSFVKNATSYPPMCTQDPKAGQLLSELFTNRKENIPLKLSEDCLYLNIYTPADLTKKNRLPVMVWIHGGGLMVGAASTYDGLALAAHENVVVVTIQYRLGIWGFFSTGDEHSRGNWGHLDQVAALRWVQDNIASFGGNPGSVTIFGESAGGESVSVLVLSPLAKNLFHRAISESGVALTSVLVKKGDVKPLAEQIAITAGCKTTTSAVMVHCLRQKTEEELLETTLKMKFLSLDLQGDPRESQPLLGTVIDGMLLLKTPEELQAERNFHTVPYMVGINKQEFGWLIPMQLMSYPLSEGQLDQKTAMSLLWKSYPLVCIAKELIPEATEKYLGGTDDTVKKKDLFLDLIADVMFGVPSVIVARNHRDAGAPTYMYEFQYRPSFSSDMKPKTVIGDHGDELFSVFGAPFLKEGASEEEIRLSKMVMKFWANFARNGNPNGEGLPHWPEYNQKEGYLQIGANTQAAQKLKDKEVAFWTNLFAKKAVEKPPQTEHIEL
- testSummary: Inhibition of hCES1A-mediated NLMe hydrolysis in human liver microsomes
- Type: biochemical
measure: log10 of IC50 (log10 of the value in nM)
All values: base-10 log of IC50 in nM.

Use the examples below as a reference point.
compound	measure	value
CC(=O)OC1CCC2(C)C(CCC3(C)C2CC=C2C4CC(C)(C)CCC4(C(=O)O)CCC23C)C1(C)C (stereo not shown) [Compound 31]	log10 of IC50	1.71
C[C@H]1[C@H](C)CC[C@]2(C(=O)O)CC[C@]3(C)C(=CC[C@@H]4[C@@]5(C)C[C@@H](O)[C@H](O)[C@@](C)(CO)[C@@H]5CC[C@]43C)[C@H]12 [Compound 7, asiatic acid]	log10 of IC50	2.23
CC1=C(O)C(=O)C=C2C1=CC=C1[C@@]2(C)CC[C@@]2(C)[C@@H]3C[C@](C)(C(=O)O)CC[C@]3(C)CC[C@]12C [Compound 11, Celastrol]	log10 of IC50	4.16

Check the records and state log10 of IC50 for CC1(C)CC[C@]2(C(=O)O)CC[C@]3(C)C(=CC[C@@H]4[C@@]5(C)C[C@@H](O)[C@H](O)C(C)(C)[C@@H]5CC[C@]43C)[C@@H]2C1 [Compound 2, maslinic acid]
2.08

Check the records and state log10 of IC50 for C[C@H]1[C@H](C)CC[C@]2(C(=O)O)CC[C@]3(C)C(=CC[C@@H]4[C@@]5(C)C[C@@H](O)[C@H](O)C(C)(C)[C@@H]5CC[C@]43C)[C@H]12 [Compound 6, corosolic acid]
2.53

Check the records and state log10 of IC50 for CC1CCC2(C(=O)O)CCC3(C)C(=CCC4C5(C)CCC(OC(=O)CCC(=O)O)C(C)(C)C5CCC43C)C2C1C (stereo not shown) [Compound 42]
1.45

---

Listed here are compounds together with their documented IC50.
- testedSystem: Pancreatic lipase (PL) (Sus scrofa)
- Construct: purchased Sigma Aldrich type II, Lot.SLBN9099V
- Sequence (P00591 1-450): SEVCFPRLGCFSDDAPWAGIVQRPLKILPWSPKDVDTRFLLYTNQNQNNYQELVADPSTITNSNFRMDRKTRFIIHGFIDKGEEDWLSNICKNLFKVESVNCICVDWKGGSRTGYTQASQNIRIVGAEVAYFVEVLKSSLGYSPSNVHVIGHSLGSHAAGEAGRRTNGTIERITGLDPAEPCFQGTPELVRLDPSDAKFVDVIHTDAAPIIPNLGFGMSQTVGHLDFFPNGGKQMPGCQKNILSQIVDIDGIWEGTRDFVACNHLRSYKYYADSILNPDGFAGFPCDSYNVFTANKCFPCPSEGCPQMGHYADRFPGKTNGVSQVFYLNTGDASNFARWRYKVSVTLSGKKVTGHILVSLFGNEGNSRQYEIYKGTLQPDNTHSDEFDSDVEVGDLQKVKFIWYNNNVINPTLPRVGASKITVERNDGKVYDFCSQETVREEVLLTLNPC
- testSummary: Inhibition of PL-mediated 4-MUO hydrolysis
- Assay type: biochemical
- runParameters: 4-MUO substrate, mean ± SD (n = 3)
Record the value in µM, omitting the unit from your answer.

smilesRepresentation	testedSystem	unitAnnotation	value
C[C@H]1[C@H](C)CC[C@]2(C(=O)O)CC[C@]3(C)C(=CC[C@@H]4[C@@]5(C)C[C@@H](O)[C@H](O)C(C)(C)[C@@H]5CC[C@]43C)[C@H]12	Pancreatic lipase (PL) (Sus scrofa)	µM	12.8

From here, focus on the item given below.
Check the records and state IC50 for "C[C@H]1[C@H](C)CC[C@]2(C(=O)O)CC[C@]3(C)C(=CC[C@@H]4[C@@]5(C)C[C@@H](O)[C@H](O)[C@@](C)(CO)[C@@H]5CC[C@]43C)[C@H]12"
12.9

All figures here come from paper PMC8812735.
